Target: β-secretase (BACE) (Homo sapiens, UniProt P56817)
Construct: purchased Panvera
Sequence (P56817 46-501): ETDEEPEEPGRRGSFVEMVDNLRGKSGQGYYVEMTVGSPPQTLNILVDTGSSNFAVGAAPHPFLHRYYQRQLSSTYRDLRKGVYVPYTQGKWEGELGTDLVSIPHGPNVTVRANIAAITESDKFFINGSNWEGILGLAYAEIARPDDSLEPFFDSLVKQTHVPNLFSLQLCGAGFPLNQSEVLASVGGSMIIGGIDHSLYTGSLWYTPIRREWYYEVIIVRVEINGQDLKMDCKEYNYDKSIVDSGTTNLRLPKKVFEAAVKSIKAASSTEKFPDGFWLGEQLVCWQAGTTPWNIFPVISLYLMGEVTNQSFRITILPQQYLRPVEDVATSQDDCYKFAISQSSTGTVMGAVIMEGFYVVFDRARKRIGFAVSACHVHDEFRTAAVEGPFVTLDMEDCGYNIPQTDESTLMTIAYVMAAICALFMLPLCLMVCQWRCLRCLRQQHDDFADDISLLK
Assay: BACE Assay-2 (Example 159), FS1 substrate, kinetic fluorescence
Format: biochemical
Details: procedure of Example 159
Hi there, I'd appreciate the recorded Ki for every entry that follows.
Answers are plain numbers, in µM.

Recorded Ki, per entry:
compound="CCCC(CCCC(=O)NC1CCCCC1)N1Cc2cc(Oc3ccccc3)ccc2N=C1N (stereo not drawn)" assay_result=0.32
compound="NC1=Nc2ccc(Oc3ccccc3)cc2CN1C(CNC(=O)C1(c2ccc(Cl)cc2)CCCC1)C1CCCCC1 (stereo not drawn)" assay_result=0.57
compound="CCCC(CNC(=O)C12CC3CC(CC(C3)C1)C2)N1Cc2cc(Oc3ccccc3)ccc2N=C1N (stereo not drawn)" assay_result=0.056
compound="CC(C)(C)OC(=O)NCC(C1CCCCC1)N1Cc2cc(Oc3ccccc3)ccc2N=C1N (stereo not drawn)" assay_result=0.056
compound="NC1=Nc2ccc(Oc3ccccc3)cc2CN1C(CNC(=O)C12CC3CC(CC(C3)C1)C2)C1CCCCC1 (stereo not drawn)" assay_result=0.039

Now look at this entry.
Ask | Tell me its Ki on β-secretase (BACE) (Homo sapiens, UniProt P56817): CN(C(=O)CC(C1CCCCC1)N1Cc2cc(Oc3ccccc3)ccc2N=C1N)C1CCCCC1 (stereo not drawn)
Reply | 0.51
